- targetSystem: OX2 (Homo sapiens)
- protocolSummary: Orexin-receptor binding ability, [125I]-OX-A, CHO cell membranes expressing OX2
- Parameters: expressed in transfected cells; host or cells: CHO cells (membrane preparation)
- experimentalContext: membranes of recombinant CHO cells, 0.2 nM [125I]-OX-A tracer; read-out: OX2 (IC50)
# key: entry, value: IC50
I only need the number, in nM, no unit after it.

Cc1nc(C(F)(F)F)nn1CC[C@@]1(c2ccccc2)C[C@H]1C(=O)Nc1ccc(Cl)cn1: 3

So what's the measured IC50 for this one? `CCn1cc(OC[C@@]2(c3ccccc3)C[C@H]2C(=O)Nc2ccc(F)cc2)c(C)n1`
45

For Cc1noc2cc(OCC3(c4ccccc4)CC3C(=O)Nc3ccc(C#N)cn3)ccc12 (centres unmarked) then?
70

====

- targetSystem: UniProt O43613
- Sequence (O43613 1-425): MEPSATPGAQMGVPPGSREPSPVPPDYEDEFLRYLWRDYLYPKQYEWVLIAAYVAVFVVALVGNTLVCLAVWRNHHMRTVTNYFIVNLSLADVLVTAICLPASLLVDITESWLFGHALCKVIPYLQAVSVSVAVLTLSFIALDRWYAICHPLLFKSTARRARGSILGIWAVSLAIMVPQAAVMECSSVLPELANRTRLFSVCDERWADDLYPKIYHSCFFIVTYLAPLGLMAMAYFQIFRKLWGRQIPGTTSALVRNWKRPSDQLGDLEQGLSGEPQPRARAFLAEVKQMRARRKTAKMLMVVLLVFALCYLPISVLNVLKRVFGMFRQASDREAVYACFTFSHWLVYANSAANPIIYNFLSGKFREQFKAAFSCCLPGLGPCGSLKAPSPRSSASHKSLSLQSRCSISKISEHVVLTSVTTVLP
- protocolSummary: Antagonism PLAP reporter assay, HEK-293 cells expressing human OX1
- Type: cell-based
- Parameters: expressed in transfected cells; host or cells: HEK-293 cell line, expression vector pBabeCLIH
- experimentalContext: HEK-293, 1 nM human OX-A; IC50 converted to Ki by Cheng-Prusoff equation
experimentalReadout: Ki

Sample records with Ki:
CCc1nc(C)c(CC[C@@]2(c3ccccc3)C[C@H]2C(=O)Nc2ccc(C#N)cn2)s1: 0.0475 µM
CCc1nc(Cl)cn1CCC1(c2ccccc2)CC1C(=O)Nc1ccc(F)cn1 (centres unmarked): > 0.467 µM
Cc1nc(C(F)(F)F)nn1CC[C@@]1(c2ccccc2)C[C@H]1C(=O)Nc1ccc(Cl)cn1: 0.14 µM
COc1ccc(OCC2(c3ccccc3)CC2C(=O)Nc2ccc(Cl)cn2)cc1OC (centres unmarked): 0.0098 µM
COc1ccc(OCC2(c3ccccc3)CC2C(=O)Nc2ncc(C)s2)cc1OC (centres unmarked): > 0.816 µM
COc1ccc(S(=O)(=O)CC2(c3ccccc3)CC2C(=O)Nc2ccc(Cl)cn2)cc1OC (centres unmarked): > 0.467 µM
COc1ccc(OCC2(c3ccccc3)CC2C(=O)Nc2ccc(F)nc2)cc1OC (centres unmarked): 0.07 µM
CCn1cc(OCC2(c3ccccc3)CC2C(=O)Nc2ccc(C#N)cn2)ccc1=O (centres unmarked): > 0.467 µM

So what's the measured Ki for this one? CCn1cc(OCC2(c3ccccc3)CC2C(=O)Nc2ccc(C#N)cn2)cn1 (centres unmarked)
> 0.467 µM

For COc1ccc(OCC2(c3ccccc3)CC2C(=O)Nc2cc(C)on2)cc1OC (centres unmarked) then?
> 0.816 µM

For COc1ccc(OCC2(c3ccccc3)CC2C(=O)Nc2nc(C)ns2)cc1OC (centres unmarked) then?
> 0.816 µM

For CCn1nc(C)cc1OCC1(c2ccccc2)CC1C(=O)Nc1ccc(Cl)cn1 (centres unmarked) then?
> 0.467 µM

====

# key: entry, value: pIC50
- targetSystem: UniProt O43613
- protocolSummary: Orexin-receptor binding ability, [125I]-OX-A, CHO cell membranes expressing OX1
- Set-up: expressed in transfected cells; host or cells: CHO cells (membrane preparation)
- experimentalContext: membranes of recombinant CHO cells, 0.2 nM [125I]-OX-A tracer; read-out: OX1 (IC50)
Value format note: pIC50 is -log10 of concentration (mol/L); just state the number.

CCn1cc(OCC2(c3ccccc3)CC2C(=O)Nc2ccc(Cl)cn2)ccc1=O (stereo not shown) [Example 54]: 7.21
CCn1cc(OCC2(c3ccccc3)CC2C(=O)Nc2ccc(F)cn2)c(C)n1 (stereo not shown) [Example 79]: 6.67

So what's the measured pIC50 for this one? CCn1nc(C)cc1OCC1(c2ccccc2)CC1C(=O)Nc1ccc(F)cn1 (stereo not shown) [Example 58]
6.33

For COc1ccc(CCC2(c3ccccc3)CC2C(=O)Nc2ccccn2)cc1OC (stereo not shown) [Example 99] then?
6.20

For COc1cccc(NC(=O)C2CC2(COc2ccc(OC)c(OC)c2)c2ccccc2)c1 (stereo not shown) [Example 34] then?
7.70

For COc1ccc(OCC2(c3ccccc3)CC2C(=O)Nc2ccccc2-c2nnc[nH]2)cc1OC (stereo not shown) [Example 35] then?
5.69

For CCn1nc(C)cc1OCC1(c2ccccc2)CC1C(=O)Nc1ccc(Cl)cn1 (stereo not shown) [Example 57] then?
6.32

For COc1ccc(OCC2(c3ccccc3)CC2C(=O)Nc2cccc(C)n2)cc1OC (stereo not shown) [Example 37] then?
6.39

For CCn1cc(OC[C@@]2(c3ccccc3)C[C@H]2C(=O)Nc2ccccn2)c(C)n1 [Example 69] then?
5.67

For CCc1nc(C)c(CC[C@@]2(c3ccccc3)C[C@H]2C(=O)Nc2ccc(C#N)cn2)s1 [Example 100] then?
7.24

For Cc1cnc(OC[C@@]2(c3ccccc3)C[C@H]2C(=O)Nc2ccc(F)cn2)c(C)n1 [Example 65] then?
7.24

====

- targetSystem: UniProt O43613
- protocolSummary: Orexin-receptor binding ability, [125I]-OX-A, CHO cell membranes expressing OX1
- Parameters: expressed in transfected cells; host or cells: CHO cells (membrane preparation)
- experimentalContext: membranes of recombinant CHO cells, 0.2 nM [125I]-OX-A tracer; read-out: OX1 (IC50)
experimentalReadout: IC50 (nM)
I only need the number, in nM, no unit after it.

Sample records with IC50:
COc1cn(CCC2(c3ccccc3)CC2C(=O)Nc2ccc(Cl)cn2)ccc1=O (centres unmarked): 456
COc1cncc(NC(=O)[C@@H]2C[C@@]2(COc2cc(=O)n(C)nc2C)c2ccccc2)c1: 1360
Cc1nc(C(F)(F)F)nn1CC[C@@]1(c2ccccc2)C[C@H]1C(=O)Nc1ccc(Cl)cn1: 98
CCn1cc(OC[C@@]2(c3ccccc3)C[C@H]2C(=O)Nc2ccc(F)cn2)ccc1=O (racemic): 160
CCn1cc(OC[C@@]2(c3cccc(F)c3)C[C@H]2C(=O)Nc2ccc(F)cn2)c(C)n1 [Example 86]: 15

Lab note: next compound to report on.
Request - read-out IC50 | tested on UniProt O43613 | compound `Cc1nc(C(F)F)nn1CC[C@@]1(c2ccccc2)C[C@H]1C(=O)Nc1ccc(F)cn1`
1330

====

# key: entry, value: pIC50
- targetSystem: UniProt:O43614
- Sequence (O43614 1-444): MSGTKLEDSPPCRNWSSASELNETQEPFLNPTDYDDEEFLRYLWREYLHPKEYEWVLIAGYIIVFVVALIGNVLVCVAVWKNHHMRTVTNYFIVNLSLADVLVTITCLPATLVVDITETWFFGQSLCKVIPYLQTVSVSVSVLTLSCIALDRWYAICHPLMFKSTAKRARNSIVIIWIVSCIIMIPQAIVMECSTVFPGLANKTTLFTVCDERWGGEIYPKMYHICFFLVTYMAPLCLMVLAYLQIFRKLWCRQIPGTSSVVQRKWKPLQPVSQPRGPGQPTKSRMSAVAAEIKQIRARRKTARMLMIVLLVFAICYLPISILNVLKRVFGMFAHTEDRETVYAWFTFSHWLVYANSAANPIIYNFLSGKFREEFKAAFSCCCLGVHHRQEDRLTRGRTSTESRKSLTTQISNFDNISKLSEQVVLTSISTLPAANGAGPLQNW
- protocolSummary: Orexin-receptor binding ability, [125I]-OX-A, CHO cell membranes expressing OX2
- Set-up: expressed in transfected cells; host or cells: CHO cells (membrane preparation)
- experimentalContext: membranes of recombinant CHO cells, 0.2 nM [125I]-OX-A tracer; read-out: OX2 (IC50)
- Method: The assay was carried out using a 96-well Wheat Germ Agglutinin Flash Plate (PerkinElmer). The volume in a single assay well was 100 ul, and the composition of the reaction solution was as follows: […] Cell membranes were prepared from recombinant CHO cells that expressed OX2 or OX1. […] Finally, the radioactivity of each well was measured using a scintillation counter (TopCount, PerkinElmer). […]
Value format note: pIC50 is -log10 of concentration (mol/L); just state the number.

So what's the measured pIC50 for this one? CCc1nc(Cl)cn1CCC1(c2ccccc2)CC1C(=O)Nc1ccc(C#N)cn1 (centres unmarked) [Example 114]
7.31

For COc1ccc(OCC2(c3ccccc3)CC2C(=O)Nc2cc(C#N)ccn2)cc1OC (centres unmarked) [Example 18] then?
7.46

For COc1ccc(OCC2(c3ccccc3)CC2C(=O)Nc2cc(C)ccn2)cc1OC (centres unmarked) [Example 36] then?
7.66

For Cc1csc(NC(=O)[C@@H]2C[C@@]2(CCn2nc(C(F)(F)F)nc2C)c2ccccc2)n1 [Example 124] then?
7.26

For Cc1cc(NC(=O)[C@@H]2C[C@@]2(CCn2nc(C(F)F)nc2C)c2ccccc2)ncc1F [Example 108] then?
8.22
